Assay: qHTS assay for small molecule agonists of the antioxidant response element (ARE) signaling pathway (AID 651741); as to activation: % of control where 0% means no effect
Details: HepG2 ARE-bla reporter, beta-lactamase FRET ratio, 16 h; series mostly up to 96 µM
Text: National Center for Advancing Translational Sciences [NCATS] NIH Chemical Genomics Center [NCGC] U.S. Environmental Protection Agency [EPA] National Institutes of Environmental Health Sciences [NIEHS] National Toxicology Program [NTP] Oxidative stress has been implicated in the pathogenesis of a variety of diseases ranging from cancer to neurodegeneration. […] The activation of the report gene under culture conditions can be detected by fluorescence intensity. […]
Results filed as inconclusive are left out. The source made the active and inactive calls. Calls follow the shape of the dose curve; as a rule, active = well fitted activation curve with a large enough effect in the signal ratio; inconclusive = small, poorly fitted or top-dose-only effect, or effect the other way, or a change in a side signal; inactive = flat fitted curve, though single readings scatter; the % refers to the signal ratio.
Outcomes: 1 for active, -1 for inactive

> print(dat)
                                   molecule  discrete.label
1       CO/N=C(/C(=O)OC)c1ccccc1COc1ccccc1C               1
2            c1ccc(-c2ccc(-c3ccccc3)cc2)cc1               1
3                         CCOP(=S)(OCC)SCCl              -1
4  O=C(O)C1(O)c2ccccc2-c2ccc(Cl)cc21 (centres undefined)               1
